target_entity: pooled human IgG (human IgG1, 2, 3 and 4)
measured_property: Enzyme Activity Endpoint Assay (purified): Fc
Please provide the amount together with its unit, number first.

- protein: "PRT-432 (protein) MSQTEDSESLQRLRDIEDFQAEKKKQNVVYTKWLDGVDVKDHDFRKIVDGNIAYYATPLLNGRGFYDINKDFNRDSDKCAAAVAANMFHYWLDRNRDNVDRFLRQNPEKHGIIELPDGQLKLSDFLNTYESDDGYRDKSKLFDFISNNFNGPVWTDKLLDNYINGYAYNSKYGRTIEDPTKNTSKINFFKEVFNEKILTNNHSIRNQNEFSVLLSEALYTGKAIGLSYGPAGLRHSLGHIISVWGADLDADGNVVAIYVTDSDDKKLTIGDERVGLKRYKISTDDEGRLRLTAYEETHNTGGQIRGLWTLDTGKQAWADYFDKTEQTGTDQAEQ"
  value_reported: "305 ng/µL"
- protein: "PRT-495 (protein) MVTSVWTKGVTPPTDFIKGEDVFHAPYKAGQGWYDITKAFDGGDDLLCGAATAGNMLHWWFDQNKEYIEAYLKKHPEKQKIMFGDQELLDVRKAINTKGSQKNSELFNYFRDKAFPNLSARRLGVMPDLVLDMFINGYYLNVTKTQTTDVNRTYQEKDKRGGIFDAVFTRGDQSKLLTSRHDFKEKGLKEISDLIKQELTEGKALGLSHTYANVRINHVINLWGADFDSDGNLKAIYVTDSDSNASIGMKKYFVGVNSAGKVAISAKEIKEDNIGAQVLGLFTLSTGQDIWNQTNLEHHHHHH"
  value_reported: "37 ng/µL"
- protein: "PRT-399 (protein) MVTSVWTKGVTPPADFTQGEDVFHAPYVANQGWYDITKTFNGKDDLLCGAATAGNMLHWWFDQNKEYIEAYLKKHPEKQKIMFGDQELLDVRKAINTKGSQKNSELFNYFRDKAFPNLSARRLGVMPDLVLDMFINGYYLNVTKTQTTDVNRTYQEKDKRGGIFDAVFTRGDQSKLLTSRHDFKEKGLKEISDLIKQELTEGKALGLSHTYANVRINHVINLWGADFDSDGNLKAIYVTDSDSNASIGMKKYVVGVNSAGKVAISAKEIKEDNIGAQVLGLFTLSTGQDIWNQTN"
  value_reported: "0 ng/µL"

Task item: What value of Enzyme Activity Endpoint Assay (purified): Fc has been recorded for this entry: PRT-457 (protein) MVTSVWTKGVTPPTDFIKGEDVFHAPYKAGQGWYDITKAFDGGDDLLCGAATAGNMLHWWFDQNKDQIEAYLKEHPEKQKINFNGEQMFDVKEAIDTKDDQTNSELFNYFKEKAFPYLSTKHLGVFPDHVLDMFINGYRLSLTNHGPTPVKRQEKDPRGGIFDAVFGRGDQTKLLTSRHDLKNKTLKEISDLIKQELTEGKALALSHTYANVRINHVINLWGADFDSNGNLEAIYVTDSDSNASIGMKKYFVGVNSAGKVAISAKEIEDDNIGAQVLGLFTLSTGQKIWNKTNLEHHHHHH
Reply: 379 ng/µL
